# assay.explanation: Plasma kinetic study of celastrol with and without Schisandrin A
# Type: in vivo, Sprague Dawley rats
# settings: male, Sprague Dawley, rat, plasma, po, 1.8 mg/kg, Group7; rats, Schisandrin A 88.0 mg/kg oral 5 min before celastrol 1.8 mg/kg oral; read-out: MRT0→∞ of celastrol
reported.metric: MRT inf (h)

{"columns": ["molecule", "reported.metric", "value.unit", "obs.value"],
 "data": [
  ["CC1=C(O)C(=O)C=C2C1=CC=C1[C@@]2(C)CC[C@@]2(C)[C@@H]3C[C@](C)(C(=O)O)CC[C@]3(C)CC[C@]12C [celastrol]", "MRT inf", "h", 16.7]
]}
